target: Recombinant human HDAC3/SMRT heterodimer (Homo sapiens, UniProt O15379); construct: FLAG (C); made in house; assay: Human HDAC enzyme inhibitor Fluor-de-Lys assay, HDAC3/SMRT; assay type: biochemical
Sequence (O15379 whole entry): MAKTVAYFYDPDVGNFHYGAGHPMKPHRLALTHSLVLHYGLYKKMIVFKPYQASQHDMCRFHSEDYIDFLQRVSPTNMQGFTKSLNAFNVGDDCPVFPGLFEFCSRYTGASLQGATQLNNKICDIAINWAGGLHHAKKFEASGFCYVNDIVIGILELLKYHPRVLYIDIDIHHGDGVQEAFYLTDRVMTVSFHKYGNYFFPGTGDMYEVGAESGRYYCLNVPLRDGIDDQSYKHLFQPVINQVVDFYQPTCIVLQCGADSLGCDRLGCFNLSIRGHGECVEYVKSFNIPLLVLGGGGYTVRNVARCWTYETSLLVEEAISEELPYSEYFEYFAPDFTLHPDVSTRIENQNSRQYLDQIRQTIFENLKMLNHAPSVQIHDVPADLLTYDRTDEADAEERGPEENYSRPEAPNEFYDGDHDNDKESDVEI
Sequence (Q9Y618 1-899 partner limits assumed): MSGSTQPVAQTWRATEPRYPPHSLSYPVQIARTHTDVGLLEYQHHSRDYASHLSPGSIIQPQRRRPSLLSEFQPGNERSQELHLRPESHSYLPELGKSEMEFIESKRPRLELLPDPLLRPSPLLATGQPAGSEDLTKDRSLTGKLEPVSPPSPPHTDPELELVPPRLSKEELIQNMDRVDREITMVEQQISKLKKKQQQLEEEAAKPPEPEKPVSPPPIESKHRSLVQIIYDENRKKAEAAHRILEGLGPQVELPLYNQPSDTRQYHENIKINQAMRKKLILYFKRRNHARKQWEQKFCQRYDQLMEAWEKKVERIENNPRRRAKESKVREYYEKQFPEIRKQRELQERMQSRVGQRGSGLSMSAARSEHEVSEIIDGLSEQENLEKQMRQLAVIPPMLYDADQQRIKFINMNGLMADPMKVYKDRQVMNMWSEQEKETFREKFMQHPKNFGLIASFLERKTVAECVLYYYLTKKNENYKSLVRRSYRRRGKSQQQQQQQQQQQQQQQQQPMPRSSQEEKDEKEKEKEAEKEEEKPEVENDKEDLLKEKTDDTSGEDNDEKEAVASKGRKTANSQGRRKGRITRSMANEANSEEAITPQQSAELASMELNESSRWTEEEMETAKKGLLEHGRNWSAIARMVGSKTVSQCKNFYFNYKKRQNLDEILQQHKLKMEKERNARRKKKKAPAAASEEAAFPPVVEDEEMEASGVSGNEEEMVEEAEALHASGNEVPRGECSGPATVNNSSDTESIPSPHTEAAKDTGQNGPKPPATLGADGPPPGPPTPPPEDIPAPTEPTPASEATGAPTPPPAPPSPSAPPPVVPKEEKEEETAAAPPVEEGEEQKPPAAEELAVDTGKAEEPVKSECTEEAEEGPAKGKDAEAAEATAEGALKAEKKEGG
// NB: equality with 3 nM counts as false (0); only IC50 strictly below is true (1)

compound	assayed_system	category_label
CCC(=O)CCCCC[C@H](NC(=O)[C@H]1CC12CCN(C(C)C)CC2)c1ncc(-c2ccc3nc(C4CC4)ccc3c2)[nH]1	Recombinant human HDAC3/SMRT heterodimer (Homo sapiens, UniProt O15379)	true (1)
CCN1CCC2(CC1)C[C@@H]2C(=O)N[C@@H](CCCCCC(=O)CC1CCC1)c1ncc(-c2cc3ccc(C)nc3cc2OC)o1	Recombinant human HDAC3/SMRT heterodimer (Homo sapiens, UniProt O15379)	false (0)
CCC(=O)CCCCC[C@H](NC(=O)[C@H]1CC12CCN(C)CC2)c1ncc(-c2ccc3nc(C(F)(F)F)ccc3c2)o1	Recombinant human HDAC3/SMRT heterodimer (Homo sapiens, UniProt O15379)	false (0)
CCN1CCC2(CC1)C[C@@H]2C(=O)N[C@@H](CCCCCC(=O)CC1CC1)c1ncc(-c2ccc(F)cc2)[nH]1	Recombinant human HDAC3/SMRT heterodimer (Homo sapiens, UniProt O15379)	false (0)
CCC(=O)CCCCC[C@H](NC(=O)[C@H]1CC12CCN(CC)CC2)c1ncc(-c2ccc(-c3cnc(C4CC4)nc3)cc2)o1	Recombinant human HDAC3/SMRT heterodimer (Homo sapiens, UniProt O15379)	false (0)
CCC(=O)CCCCC[C@H](NC(=O)[C@H]1CC12CCN(C)CC2)c1ncc(-c2ccc3c(c2)C2CCC3C2)[nH]1 (stereo partly shown)	Recombinant human HDAC3/SMRT heterodimer (Homo sapiens, UniProt O15379)	false (0)
CCC(=O)CCCCC[C@H](NC(=O)[C@H]1CC12CCN(C)CC2)c1ncc(-c2ccc3ncc(Cl)cc3c2)[nH]1	Recombinant human HDAC3/SMRT heterodimer (Homo sapiens, UniProt O15379)	true (1)
CCC(=O)CCCCC[C@H](NC(=O)[C@H]1CC12CCN(C(C)C)CC2)c1ncc(-c2ccc3nc(C4CC4)ccc3c2)o1	Recombinant human HDAC3/SMRT heterodimer (Homo sapiens, UniProt O15379)	false (0)
CCC(=O)CCCCC[C@H](NC(=O)[C@H]1CC12CCN(C)CC2)c1nc(F)c(-c2cc3ccccc3nc2OC)[nH]1	Recombinant human HDAC3/SMRT heterodimer (Homo sapiens, UniProt O15379)	true (1)
C=CCN1CCC2(CC1)C[C@@H]2C(=O)N[C@@H](CCCCCC(=O)CC)c1ncc(-c2cccc3c2C2CCC3N2CC=C)[nH]1 (stereo partly shown)	Recombinant human HDAC3/SMRT heterodimer (Homo sapiens, UniProt O15379)	true (1)
CCC(=O)CCCCC[C@H](NC(=O)C1=NOC2(CCN(C)CC2)C1)c1ncc(-c2cc3ccc(=O)n(C)c3cc2OC)o1	Recombinant human HDAC3/SMRT heterodimer (Homo sapiens, UniProt O15379)	true (1)
CCN1CCC2(CC1)C[C@@H]2C(=O)N[C@@H](CCCCCC(=O)CC1CC1)c1ncc(-c2cc3ccc(C)nc3cc2OC)o1	Recombinant human HDAC3/SMRT heterodimer (Homo sapiens, UniProt O15379)	true (1)
CCC(=O)CCCCC[C@H](NC(=O)C1=NOC2(CCN(C)CC2)C1)c1ncc(-c2cc3ccc(C)nc3cc2F)o1	Recombinant human HDAC3/SMRT heterodimer (Homo sapiens, UniProt O15379)	false (0)
